- Assayed System: T1, human OX40 on cells (CHO-hOX40, 293HEK-hOX40, Jurkat-hOX40, activated primary CD4+ T cells) (human, UniProt P43489 29-277)
- T1 construct: whole, on cells; The cell type is told in each assay; also called CHO-OX40
- T1 sequence (looked up): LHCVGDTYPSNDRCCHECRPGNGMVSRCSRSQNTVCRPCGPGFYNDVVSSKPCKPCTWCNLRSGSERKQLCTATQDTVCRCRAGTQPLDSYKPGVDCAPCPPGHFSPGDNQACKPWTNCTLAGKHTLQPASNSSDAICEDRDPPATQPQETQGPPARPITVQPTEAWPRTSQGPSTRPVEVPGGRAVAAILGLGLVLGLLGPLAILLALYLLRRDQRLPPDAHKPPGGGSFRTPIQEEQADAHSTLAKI
- Method Summary: flow cytometry, 293HEK-hOX40, 1.6 nM
Quantity Kind: MFI

Binder: ADI-20113, IgG1 format (antibody, V domains shown, Made in yeast) VH: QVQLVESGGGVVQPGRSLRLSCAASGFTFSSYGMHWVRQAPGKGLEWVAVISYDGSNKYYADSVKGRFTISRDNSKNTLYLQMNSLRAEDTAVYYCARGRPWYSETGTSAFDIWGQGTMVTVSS VL: EIVMTQSPATLSVSPGERATLSCRASQSVSSNLAWYQQKPGQAPRLLIYSASTRATGIPARFSGSGSGTEFTLTISSLQSEDFAVYYCQQHNVYPPYTFGGGTKVEIKR
Observed Result: 734000 MFI
//
Binder: ADI-20048, IgG1 format (antibody, V domains shown, Made in yeast) VH: QVQLQESGPGLVKPSETLSLTCTVSGGSISSYYWSWIRQPPGKGLEWIGYIYSSGSTNYNPSLKSRVTISVDTSKNQFSLKLSSVTAADTAVYYCARDAPGGSSYQDYYMDVWGKGTTVTVSS VL: EIVLTQSPATLSLSPGERATLSCRASQSVSSYLAWFQQKPGQAPRLLIYDASNRATGIPARFSGSGSGTDFTLTISSLEPEDFAVYYCQQAFSMPPTFGGGTKVEIKR
Observed Result: 977000 MFI
//
Binder: IgG1 control (antibody, V domains shown, Negative control; The printed entries seem to begin with a leader peptide) VH: EVRLLESGGGLVQPGGSLRLSCAASGFTFSNYAMGWVRQAPGKGLEWVSAISGSGGSTYYADSVKGRFTTSRDDSKNALYLQMNSLRAEDTAVYYCARGGPGWYAADVWGQGTTVTVSS VL: DIQMTQSPSSLSASVGDRVTITCRASQSISSYLNWYQQKPGKAPKLLIYAASSLQSGVPSRFSGSGSGTDFTLTISSLQPEDFATYYCQQADLPAFAFGGGTKVEIKR
Observed Result: 5630 MFI

Looking up ADI-20066, IgG1 format (antibody, V domains shown, Made in yeast) VH: QLQLQESGPGLVKPSETLSLTCTVSGGSISSSSYYWGWIRQPPGKGLEWIGSIYYSGSTYYNPSLKSRVTISVDTSKNQFSLKLSSVTAADTAVYYCARDPGYSASPNWFDPWGQGTLVTVSS VL: EIVLTQSPGTLSLSPGERATLSCRASQSVSSSFLAWYQQKPGQAPRLLIYGASSRATGIPDRFSGSGSGTDFTLTISRLEPEDFAVYYCQQYDVFPITFGGGTKVEIKR , I see its MFI listed as 626000 MFI

# credit: patent US20200140562A1
